tested on: OVCAR-8 ovarian; experiment: NCI-60 one-dose screen, 48 h (100 = growth as untreated, 0 = no growth, -100 = all killed); conditions: 10 µM unless noted
About 83,000 compounds went through this panel and 20% of them were active in at least one assay; those are over-represented in the sample as a whole.
READOUT TYPE: growth (%)

- COc1ccc(C(=O)c2c(N)c(C#N)cn2-c2ccc([N+](=O)[O-])cc2)cc1: 88.5
- OC1CCC(Cn2c(C(F)(F)F)cc3c(Cl)ncnc32)CC1 (stereo not drawn): -4.04
- O=C(c1ccc(Cl)cc1)C1[C@H](c2ccccc2Cl)[C@@H](c2ccccc2)NC12C(=O)Nc1ccccc12 (stereo partly drawn): -31

###

system: CCRF-CEM leukemia; assay: NCI-60 one-dose screen, 48 h (100 = growth as untreated, 0 = no growth, -100 = all killed); conditions: 10 µM unless noted
The panel holds about 83,000 compounds, 20% with a hit somewhere; the sample as a whole holds those more often.
Reported growth by item:
READOUT TYPE: growth (%)

• COc1cccc2nc(Nc3cccc(NC(=O)c4ccc(CN5CCN(C)CC5)c(C(F)(F)F)c4)c3)ccc12 = -44.4
• C[C@@H]1[C@H]2C[C@@H](C[C@H]1NCc1nc3ccccc3n1C1CCCCCC1)C2(C)C = 58
• O=C(c1ccc(Cl)cc1)C1[C@H](c2ccccc2Cl)[C@@H](c2ccccc2)NC12C(=O)Nc1ccc(Br)cc12 (some centres undefined) = -13.5
• COc1ccc(/C=C/C(=O)c2ccc(OC)c(S(N)(=O)=O)c2)c(C(F)(F)F)c1 = 2.27

###

test system: MCF7 breast; assay: NCI-60 one-dose screen, 48 h (100 = growth as untreated, 0 = no growth, -100 = all killed); conditions: 10 µM unless noted
This is part of a sample that, as a whole, favours compounds with a hit. Of some 83,000 tested, about 20% had one in any assay.
Reported growth by item:
READOUT TYPE: growth (%)

* CC1=C(C(=O)Nc2ccccc2)C(c2cccc(Cl)c2Cl)n2c(nc3ccccc32)N1 (centres undefined) | 24.6
* Cc1ccc(S(=O)(=O)N(CCn2ccnc2[N+](=O)[O-])CCn2ccnc2[N+](=O)[O-])cc1 | 100
* Cc1cccc(-c2ccccc2Oc2ccc3nnc(Cl)n3n2)c1 | 95
* COc1cc(CNC(=O)C[C@H](C)CCC=C(C)C)ccc1OCc1cn(-c2ccccc2F)nn1 | 66.9
* NNc1ncnc2sc3c(c12)CCN(Cc1ccccc1)C3 | 9.55
* O=C(COc1ccc(/C=C2/C(=O)Nc3ccc(Cl)cc32)cc1)Nc1ccc(Br)cc1 | -26.9
* COc1cc(C2C(C(=O)OCc3ccccc3)=C(C)Nc3nc4ccccc4n32)cc(OC)c1OC (centres undefined) | 7.08
* COc1ccc(NC(=O)N/N=C/c2c[nH]c3ccccc23)cc1 | 16.8
* O=C(Nc1nc2ccc([N+](=O)[O-])cc2s1)Nc1ccccc1F | -0.503
* COc1cc(CNC(=O)C[C@H](C)CCC=C(C)C)ccc1OCc1cn(-c2cccc(C(F)(F)F)c2)nn1 | 56.8
* c1n[nH]cc1-c1nc2ccc3[nH]ncc3c2c2c1CC1(CC2)COC1 | 62.4
* CCOc1ccccc1NC(=O)N/C(N)=N/c1nc2ccccc2s1 | 11
* Cn1cc(-c2cc(N)n3nc(-c4c[nH]c5ccccc45)cc3n2)c2cc(Br)ccc21 | -73.9
* O=C(N=Nc1c(O)[nH]c2ccc(Cl)cc12)c1ccc2nc(-c3ccc(Cl)cc3)[nH]c2c1 | 1.03
* COc1ccc(-c2cc(C(=O)OCc3ccc(Br)cc3)nn2-c2ccc(S(C)(=O)=O)cc2)cc1OC | 72.1
* O=C(CSc1nc2ccccc2c(=O)[nH]1)NNC(=O)c1ccccc1Cl | 93.4
* Cc1ccc(Cl)cc1NC(=O)N/C(N)=N/c1nc2ccccc2s1 | 4.25
* O=C(NNC(=S)NC(=O)c1ccccc1)c1ccc(OCc2nc3ccc(Cl)cc3[nH]2)cc1 | 3.67
* COC(=O)c1c(C(=O)OC)c2c3ccccc3c3ccccc3n2c1C(=O)C(F)(F)F | 91.6
* O=C(O)CC1S/C(=N/N=C/c2nc3ccccc3s2)NC1=O (centres undefined) | 60.9
* CCCn1c(NC(=O)c2cccc(C(N)=O)c2)nc2cc(CN3CCCCC3)ccc21 | 71.5
* COc1c2c(cc3c1C(CCc1ccccc1)N(C)CC3)OCO2 (centres undefined) | -34.4
* COc1ccc2[nH]c(O)c(N=Nc3nc(-c4ccc(Br)cc4)cs3)c2c1 | -16.4
* O=C(c1ccc(Cl)cc1)C1[C@H](c2ccccc2Cl)[C@@H](c2ccccc2)NC12C(=O)Nc1ccc(Cl)cc12 (some centres undefined) | -37.7
* CCC(=O)c1c2c(c3ccc4c5ccccc5ccc4n13)C(=O)c1ccccc1C2=O | 54
* Cc1cc(C(NC(=O)C2CC3(CC(Nc4cccc5c4C(=O)N(C4CCC(=O)NC4=O)C5=O)C3)C2)c2ccc3c(c2)OC(F)(F)O3)c(O)c2ncccc12 (centres undefined) | 8.12
* NS(=O)(=O)c1ccc(Nc2nc(SCC(=O)c3ccc(F)cc3)nc3ccccc23)cc1 | 19.1
* Cc1[nH]nc2ccc3nc(-c4cn[nH]c4C(F)(F)F)c4c(c3c12)CCCC4 | 5.54
* O=C1N/C(=N\c2nccs2)S/C1=C\c1ccc([N+](=O)[O-])cc1 | 9.68
* O=[N+]([O-])c1cccc(-c2nnc3c(/C=C/c4ccc(F)cc4)nc4ccccc4n23)c1 | 28.4
* COc1ccc2[nH]c(O)c(N=Nc3nc(-c4ccc(Cl)cc4)cs3)c2c1 | -19
* CN1C(=O)C2(C(C#N)=C(c3ccc(Cl)cc3)Nc3c2c(-c2ccccc2)nn3-c2ccccc2)c2ccccc21 (centres undefined) | 73.8
* Cc1ccc(C2CC(c3ccc(S(=O)(=O)NCCNc4nc(N(C)C)nc(N5CCOCC5)n4)cc3)=Nc3c(N)nc(N)nc3N2)cc1 (centres undefined) | 27.6
* COc1cccc(/C=C/c2nc3ccccc3c(=O)n2CC(=O)Nc2ccccc2)c1 | 41.6

###

test system: OVCAR-3 ovarian; experiment: NCI-60 one-dose screen, 48 h (100 = growth as untreated, 0 = no growth, -100 = all killed); settings: 10 µM unless noted
Compounds without any hit were thinned out: in the full panel of roughly 83,000, 20% have a hit. Calls of active or inactive are those of the source. How the source made its calls: active means growth percent below 10; inactive means the rest.
Reported growth by item:
READOUT TYPE: growth

* COc1cc(/C=N/NC(=O)c2ccc(OCc3nc4ccc(Cl)cc4[nH]3)cc2)cc(OC)c1OC | 55.7% (inactive)
* COC(=O)CSC1=C(C)C(=O)C(OC)=C(OC)C1=O | 91.8% (inactive)
* N#Cc1cc(-c2ccc3ncnc(N4CCc5cc(F)c(Cl)cc54)c3c2)cnc1N | 16.6% (inactive)
* O=C1CCC(N2C(=O)c3cccc(NCCOCCOCCOCCC(=O)NCCCC(=O)NC(c4ccc5c(c4)OCO5)c4cc(Cl)c5cccnc5c4O)c3C2=O)C(=O)C1 (configuration not stated) | 10.9% (inactive)
* COc1cc(C2CC(c3ccc(C(F)(F)F)cc3)=Nc3c(N)nc(N)nc3N2)ccc1Oc1nc(Nc2ccc(F)cc2)nc(N(C)C)n1 (configuration not stated) | 76.1% (inactive)
* Cc1ccc(S(=O)(=O)N(CCn2ccnc2[N+](=O)[O-])CCn2ccnc2[N+](=O)[O-])cc1 | 124% (inactive)
* COC(=O)c1cccc(Oc2ccc(NC(=O)Nc3cc(C(F)(F)F)ccc3F)cc2)c1 | 78.5% (inactive)

###

test system: U251 CNS; assay: NCI-60 one-dose screen, 48 h; settings: 10 µM unless noted
The panel holds about 83,000 compounds, 20% with a hit somewhere; the sample as a whole holds those more often. Active and inactive are the calls of the source. The calls were made as follows: active = growth percent below 10; inactive = the rest.
Classes used: active, inactive

- COc1cccc(-c2ccc(/C=N/NC(=O)c3[nH]c4ccc(Br)cc4c3-c3ccccc3)s2)c1: active
- O=C(NNC(=S)NCCc1ccccc1)c1ccc(OCc2nc3ccc(Cl)cc3[nH]2)cc1: inactive
- COc1cc2cc(C(=O)N3C[C@@H](CCl)c4c3cc(OC(=O)N(CCC(=O)N3CCN(C)CC3)C3CCCCC3)c3ccccc43)[nH]c2c(OC)c1OC: active
- O=C(Cn1c(-c2ccccc2)nc2ccccc21)N=Nc1c(O)[nH]c2ccc(Cl)cc12: inactive
- O=C(N/N=C/c1ccc(Cl)o1)c1[nH]c2ccc(Br)cc2c1-c1ccccc1: active
- Cn1cc(Nc2ncnc(-c3ccc(N4CCCC4)c(C#N)c3)n2)cn1: inactive
- Nc1cc(-c2c[nH]c3ccc(Cl)cc23)nc2cc(-c3c[nH]c4ccccc34)nn12: active
- N#Cc1cc(-c2ccnc(Nc3ccc(N4CCN(C5COC5)CC4)cc3)n2)ccc1N1CCCC1: inactive
- COc1ccc(N=Nc2c(N)nn3c(-c4cc5cc(Br)ccc5oc4=O)ccnc23)cc1: active
